- target-or-test-system: recombinant CpLDH protein (Cryptosporidium parvum, UniProt Q9GT92, F198L/K295E/R251K)
readout: MEAN CpLDH INHIBITION (%)
Response body: numeric value in %, unit text excluded.

Ask | Lab request: please report MEAN CpLDH INHIBITION (%) under test system recombinant CpLDH protein (Cryptosporidium parvum, UniProt Q9GT92, F198L/K295E/R251K) for `O=C(OCC12CC3CC(CC(C3)C1)C2)c1ccc(NCc2cc(O)ccc2O)cc1`
Reply | -0.01

Ask | Lab request: please report MEAN CpLDH INHIBITION (%) under test system recombinant CpLDH protein (Cryptosporidium parvum, UniProt Q9GT92, F198L/K295E/R251K) for `CN(C)c1ccc(/C=C2\CCc3ccccc3C2=O)cc1Br`
Reply | -31.17

Ask | Lab request: please report MEAN CpLDH INHIBITION (%) under test system recombinant CpLDH protein (Cryptosporidium parvum, UniProt Q9GT92, F198L/K295E/R251K) for `CN1CC[C@]23c4ccccc4N[C@H]1[C@]21CCN(C)[C@H]3Nc2ccccc21`
Reply | -25.29

Ask | Lab request: please report MEAN CpLDH INHIBITION (%) under test system recombinant CpLDH protein (Cryptosporidium parvum, UniProt Q9GT92, F198L/K295E/R251K) for CCC(C#N)(c1ccccc1)N(CCc1ccccc1)C(=O)c1ccccc1 (centres unmarked)
Reply | -7.66

Ask | Lab request: please report MEAN CpLDH INHIBITION (%) under test system recombinant CpLDH protein (Cryptosporidium parvum, UniProt Q9GT92, F198L/K295E/R251K) for `CN(C)c1ccc(/C=C/C(=O)[O-])cc1.CN(C)c1ccc(/C=C/C(=O)[O-])cc1.[Cu+2]`
Reply | -4.10
